Test system: E. coli TESEC Mtb Alr
Test: growth (OD600 after 10 h); higher = more growth (less inhibition)
Conditions: arabinose 10000000 nM; compound 0.1 mM; raw OD600 reference: median of DMSO wells 0.146, cell-free background 0.041
Structures can show the parent of a compound that is named as a salt.
Quantity: growth
Please respond with just the number, no unit label.

Solved cases (2 shown):
{"Molecule": "CC[N+](C)(C)Cc1ccccc1Br [Bretylium tosylate]", "growth": 0.163}
{"Molecule": "CC(=O)N(O)CCCCCNC(=O)CCC(=O)N(O)CCCCCNC(=O)CCC(=O)N(O)CCCCCN [Deferoxamine mesylate]", "growth": 0.0625}

Which growth is listed for N=C(N)c1ccc(OCCCCCOc2ccc(C(=N)N)cc2)cc1 [Pentamidine isethionate] ?
0.095

Note, next up: CN1CCCCC1CCN1c2ccccc2Sc2ccc([S+](C)[O-])cc21 (centres undefined) [Mesoridazine besylate]
0.149

----------
Tested on: E. coli TESEC Mtb Asd
Assay: growth (OD600 after 10 h); higher = more growth (less inhibition)
Conditions: arabinose induction (level): Low; compound 0.1 mM; raw OD600 reference: median of DMSO wells 0.417, cell-free background 0.041
Where a name gives a salt, the structure may show the parent alone.
Entries and their growth
Please respond with just the number, no unit label.

Solved cases (3 shown):
{"Compound": "CCCCC(C)(O)C/C=C/[C@H]1[C@H](O)CC(=O)[C@@H]1CCCCCCC(=O)OC (mixture of isomers) [Misoprostol]", "growth": 0.44}
{"Compound": "CN(C)CCOC(c1ccccc1)c1ccccc1.Cn1c(=O)c2[nH]c(Cl)nc2n(C)c1=O [Dimenhydrinate]", "growth": 0.342}
{"Compound": "Cc1c(O)cccc1C(=O)N[C@@H](CSc1ccccc1)[C@H](O)CN1C[C@H]2CCCC[C@H]2C[C@H]1C(=O)NC(C)(C)C [Nelfinavir mesylate]", "growth": 0.275}

Next up:
Which growth is listed for CN(CCOc1ccc(NS(C)(=O)=O)cc1)CCc1ccc(NS(C)(=O)=O)cc1 [Dofetilide] ?
0.336

----------
System: E. coli TESEC Mtb Alr
Test: growth (OD600 after 10 h); higher = more growth (less inhibition)
Settings: arabinose 10000000 nM; compound 0.1 mM; raw OD600 reference: median of DMSO wells […], cell-free background 0.052
Structures can show the parent of a compound that is named as a salt.
Parameter threshold = 0.3. Response is criterion met when growth meets or exceeds it, else criterion not met.

{"Molecule": "O=C1[C@H]2CCCC[C@H]2C(=O)N1CCCCN1CCN(c2nsc3ccccc23)CC1 [Perospirone]", "Label class": "criterion not met"}
{"Molecule": "N#Cc1ccc(C(c2ccc(C#N)cc2)n2cncn2)cc1 [Letrozole]", "Label class": "criterion met"}
{"Molecule": "CC(C)NCC(O)COc1ccc(CCOCC2CC2)cc1 (stereo unspecified) [Betaxolol hydrochloride]", "Label class": "criterion met"}
{"Molecule": "CCN(CC)CCCC(C)Nc1c2ccc(Cl)cc2nc2ccc(OC)cc12 (stereo unspecified) [Quinacrine dihydrochloride hydrate]", "Label class": "criterion not met"}

Shifting focus to the molecule that follows.
Could you tell me if the measured growth of Clc1ccc2c(c1)CCc1cccnc1C2=C1CCNCC1 [Desloratadine] reaches 0.3 or more?
criterion not met

----------
Tested on: E. coli TESEC Mtb DapB
Assay: growth (OD600 after 10 h); higher = more growth (less inhibition)
Conditions: arabinose induction (level): Low; compound 0.1 mM; raw OD600 reference: median of DMSO wells 0.227, cell-free background 0.041
Counter-ions that a name gives are not always drawn.
Quantity: growth

Solved cases (6 shown):
{"Compound": "Cc1cc(C(C)(C)CC(C)(C)C)ccc1OCCOCC[N+](C)(C)Cc1ccccc1 [Methyl benzethonium chloride]", "Target": "E. coli TESEC Mtb DapB", "Val": 0.0542}
{"Compound": "C[N+]1(CCCCC[N+]2(C)CCCC2)CCCC1 [Pentolinium bitartrate]", "Target": "E. coli TESEC Mtb DapB", "Val": 0.185}
{"Compound": "NS(=O)(=O)c1cc2c(cc1Cl)NCNS2(=O)=O [Hydrochlorothiazide]", "Target": "E. coli TESEC Mtb DapB", "Val": 0.244}
{"Compound": "CCN1C(=O)NC(c2ccccc2)C1=O (centres undefined)", "Target": "E. coli TESEC Mtb DapB", "Val": 0.243}
{"Compound": "CCOC(=O)[C@H](CCc1ccccc1)N[C@@H](C)C(=O)N1Cc2ccccc2C[C@H]1C(=O)O [Quinapril HCl]", "Target": "E. coli TESEC Mtb DapB", "Val": 0.165}
{"Compound": "CC(C)(C)NC[C@H](O)COc1ccccc1C1CCCC1 [Penbutolol sulfate]", "Target": "E. coli TESEC Mtb DapB", "Val": 0.207}

Which growth is listed for CC[C@]12CCCN3CCc4c(n(c5ccccc45)C(=O)C1)[C@@H]32 [Eburnamonine (-)] ?
0.176

Note, next up: Nc1nc(=O)n([C@@H]2CS[C@H](CO)O2)cc1F [(-)-Emtricitabine]
0.218

Note, next up: `CC(=O)N[C@@H](CS)C(=O)O`
0.232

----------
Entries and their growth
Test system: E. coli TESEC Mtb Alr
Experiment: growth (OD600 after 10 h); higher = more growth (less inhibition)
Conditions: arabinose 10000 nM; compound 0.1 mM; raw OD600 reference: median of DMSO wells 0.264, cell-free background 0.041
Counter-ions that a name gives are not always drawn.
Please respond with just the number, no unit label.

Solved cases (10 shown):
{"Compound": "NNC(=O)c1ccncc1 [Isoniazid]", "Target": "E. coli TESEC Mtb Alr", "growth": 0.275}
{"Compound": "O=C(CCCN1CCC(O)(c2ccc(Br)cc2)CC1)c1ccc(F)cc1 [Bromperidol]", "Target": "E. coli TESEC Mtb Alr", "growth": 0.265}
{"Compound": "C[C@](N)(Cc1ccc(O)c(O)c1)C(=O)O [Methyldopa (L,-)]", "Target": "E. coli TESEC Mtb Alr", "growth": 0.27}
{"Compound": "CCCCC(=O)O[C@H]1CC[C@H]2[C@@H]3CCc4cc(O)ccc4[C@H]3CC[C@]12C [Estradiol Valerate]", "Target": "E. coli TESEC Mtb Alr", "growth": 0.285}
{"Compound": "O=C(O)CNC(=O)C(CS)Cc1ccccc1 (configuration not stated) [Thiorphan]", "Target": "E. coli TESEC Mtb Alr", "growth": 0.257}
{"Compound": "NCCc1ccc(O)c(O)c1 [Dopamine hydrochloride]", "Target": "E. coli TESEC Mtb Alr", "growth": 0.274}
{"Compound": "CCOc1ccccc1OCC1CNCCO1 (configuration not stated) [Viloxazine hydrochloride]", "Target": "E. coli TESEC Mtb Alr", "growth": 0.273}
{"Compound": "CC(C(=O)O)c1ccc(-c2ccccc2)c(F)c1 (configuration not stated) [Flurbiprofen]", "Target": "E. coli TESEC Mtb Alr", "growth": 0.23}
{"Compound": "CN(C)CCN(Cc1ccccc1)c1ccccn1 [Tripelennamine hydrochloride]", "Target": "E. coli TESEC Mtb Alr", "growth": 0.254}
{"Compound": "O=C(O)c1ccccc1Nc1cccc(C(F)(F)F)c1 [Flufenamic acid]", "Target": "E. coli TESEC Mtb Alr", "growth": 0.0406}

Which growth is listed for COc1ccc(C(=O)NCc2ccc(OCCN(C)C)cc2)cc1OC [Itopride] ?
0.268

Note, next up: CN1CCN2c3ccccc3Cc3ccccc3C2C1 (configuration not stated) [Mianserine hydrochloride]
0.283

Note, next up: CN1CC2c3ccccc3Oc3ccc(Cl)cc3C2C1 (configuration not stated) [Asenapine maleate]
0.225

Note, next up: Nc1nc(/C(=C/CC(=O)O)C(=O)N[C@@H]2C(=O)N3C(C(=O)O)=CCS[C@H]23)cs1 [Ceftibuten]
0.0439

Note, next up: CC(COc1ccccc1)NC(C)C(O)c1ccc(O)cc1 (configuration not stated) [Isoxsuprine hydrochloride]
0.256

Note, next up: O=C(CCCN1CCN(c2ccccn2)CC1)c1ccc(F)cc1 [Azaperone]
0.294

----------
Entries and their growth
System: E. coli TESEC Mtb Asd
Assay: growth (OD600 after 10 h); higher = more growth (less inhibition)
Settings: arabinose induction (level): Low; compound 0.1 mM; raw OD600 reference: median of DMSO wells 0.417, cell-free background 0.041
Structures can show the parent of a compound that is named as a salt.

{"Molecule": "CCOc1ccc2c(c1)C(C)=CC(C)(C)N2 [Ethoxyquin]", "growth": 0.305}

Which growth is listed for CO[C@@]1(NC(=O)Cc2cccs2)C(=O)N2C(C(=O)O)=C(COC(N)=O)CS[C@@H]21 [Cefoxitin sodium salt] ?
0.0593

Note, next up: CN1C(=O)CC(c2ccccc2)C1=O (centres undefined) [Phensuximide]
0.401

Note, next up: CCCOc1ccc(C(=O)OCCN(CC)CC)cc1N [Proparacaine hydrochloride]
0.426

Note, next up: COc1ccccc1OCC(O)CO (centres undefined) [Guaifenesin]
0.377

Note, next up: NC(CO)C(=O)NNCc1ccc(O)c(O)c1O (centres undefined) [Benserazide hydrochloride]
0.186

Note, next up: CC[C@H](c1ccc(O)cc1)[C@@H](CC)c1ccc(O)cc1 [Hexestrol]
0.0486

Note, next up: CC(C)NC[C@@H](O)COc1ccc(CC(N)=O)cc1 [(R)-(+)-Atenolol]
0.442

Note, next up: CC(C)(C)C(=O)OCOC(=O)[C@@H]1N2C(=O)[C@@H](NC(=O)[C@H](N)c3ccccc3)[C@H]2SC1(C)C [Pivampicillin]
0.396
